Reference source: patent US20140135310A1

Recorded measurements of 5-HT2A ag [%], one per entry
assayed system: UniProt P28223
Sequence (P28223 whole entry): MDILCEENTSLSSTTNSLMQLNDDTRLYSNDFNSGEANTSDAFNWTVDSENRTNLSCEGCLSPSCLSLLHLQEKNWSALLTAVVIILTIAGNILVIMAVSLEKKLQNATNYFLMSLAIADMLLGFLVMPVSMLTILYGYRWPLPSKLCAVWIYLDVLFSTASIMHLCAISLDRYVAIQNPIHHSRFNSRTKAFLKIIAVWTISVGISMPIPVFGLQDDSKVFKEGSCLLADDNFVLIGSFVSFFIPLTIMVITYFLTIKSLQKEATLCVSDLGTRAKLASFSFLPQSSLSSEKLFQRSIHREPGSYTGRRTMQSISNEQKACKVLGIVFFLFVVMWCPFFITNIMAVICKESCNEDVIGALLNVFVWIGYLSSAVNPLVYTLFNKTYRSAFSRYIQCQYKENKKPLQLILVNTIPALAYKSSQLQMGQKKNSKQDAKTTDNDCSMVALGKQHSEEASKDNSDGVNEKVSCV
test summary: Cellular functional assay, 5-HT2A serotoninergic receptors
Type: cell-based
measurement conditions: agonist mode; percent of control specific agonist response
Please state the figure in %; there is no need to write the unit.

Q) Give the measured 5-HT2A ag [%] of `O=S(=O)(N[C@@H]1CCN(CCCc2noc3cc(F)ccc23)C1)c1csc2ccccc12` .
A) −2

Q) Also, `O=S(=O)(N[C@@H]1CCN(CCCc2noc3cc(F)ccc23)C1)c1ccc2cc(Cl)ccc2c1` please.
A) 0

* * *

assayed system: α2C adrenergic receptors (Homo sapiens)
Construct: expressed in transfected cells; host or cells: CHO cells
Sequence (P18825 whole entry): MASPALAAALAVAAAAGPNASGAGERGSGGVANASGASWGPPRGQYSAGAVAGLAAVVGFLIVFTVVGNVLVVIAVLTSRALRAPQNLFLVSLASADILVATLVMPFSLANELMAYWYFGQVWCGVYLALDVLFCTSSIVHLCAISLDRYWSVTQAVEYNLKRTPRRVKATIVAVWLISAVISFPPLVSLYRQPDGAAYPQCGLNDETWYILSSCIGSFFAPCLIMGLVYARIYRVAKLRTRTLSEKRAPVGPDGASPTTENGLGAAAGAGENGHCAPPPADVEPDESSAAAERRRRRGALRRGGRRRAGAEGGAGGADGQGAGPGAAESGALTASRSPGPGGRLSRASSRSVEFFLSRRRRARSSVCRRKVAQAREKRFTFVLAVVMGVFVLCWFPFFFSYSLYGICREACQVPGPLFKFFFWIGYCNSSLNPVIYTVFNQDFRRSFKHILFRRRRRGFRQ
test summary: Radioligand binding assay, adrenergic α2C receptors
measurement conditions: test compound 1×10^−6 M
Text: The specific ligand binding to the receptors is defined as the difference between the total binding and the non-specific binding determined in the presence of the excess of unlabelled ligand. The results are expressed as a percent of control specific binding ((measured specific binding/control specific binding)×100) and as a percent inhibition of control specific binding (100−((measured specific binding/control specific binding)×100)) obtained in the presence of the test compounds. […]
Recorded measurements of inhibition at 1 µM, one per entry
Please state the figure in %; there is no need to write the unit.

Here are 3 molecules together with their reported answers.
O=S(=O)(N[C@H]1CCN(CCCc2noc3cc(F)ccc23)C1)c1csc2ccccc12 [Compound 225] = 80
O=S(=O)(N[C@H]1CCN(CCCc2noc3cc(F)ccc23)C1)c1cc2ccccc2s1 [Compound 197] = 90
O=S(=O)(N[C@H]1CCN(CCCc2noc3cc(F)ccc23)C1)c1cc2ccc(Cl)cc2s1 [Compound 199] = 82

Now look at this entry.
Q) Give the measured inhibition at 1 µM of Cc1c(S(=O)(=O)NCC2CN(CCCc3noc4cc(F)ccc34)C2)sc2ccc(Cl)cc12 [Compound 131] .
A) 92

* * *

assayed system: M3 muscarinic receptors (Homo sapiens, UniProt P20309)
Construct: expressed in transfected cells; host or cells: CHO cells
Sequence (P20309 whole entry): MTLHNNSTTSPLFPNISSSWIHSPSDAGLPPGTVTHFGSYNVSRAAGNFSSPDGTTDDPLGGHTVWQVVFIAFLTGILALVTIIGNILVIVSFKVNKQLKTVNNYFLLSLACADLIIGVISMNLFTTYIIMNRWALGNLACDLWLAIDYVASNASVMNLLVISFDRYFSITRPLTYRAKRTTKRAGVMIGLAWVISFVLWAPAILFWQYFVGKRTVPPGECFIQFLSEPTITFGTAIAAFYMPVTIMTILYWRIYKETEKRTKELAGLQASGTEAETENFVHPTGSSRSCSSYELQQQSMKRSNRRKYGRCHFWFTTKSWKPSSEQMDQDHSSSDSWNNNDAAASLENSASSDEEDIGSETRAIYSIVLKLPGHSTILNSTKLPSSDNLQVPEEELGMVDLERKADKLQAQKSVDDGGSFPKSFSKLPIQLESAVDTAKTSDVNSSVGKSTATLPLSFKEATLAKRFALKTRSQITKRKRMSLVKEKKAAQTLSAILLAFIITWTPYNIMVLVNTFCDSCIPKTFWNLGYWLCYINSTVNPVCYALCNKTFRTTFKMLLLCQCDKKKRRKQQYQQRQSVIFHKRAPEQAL
test summary: Radioligand binding assay, muscarinic M3 receptors
measurement conditions: test compound 1×10^−6 M
metric: inhibition at 1 µM
Reply with a number, then the unit it belongs to.

Here are 5 compounds together with their reported answers.
Cc1cc(S(=O)(=O)NCC2CCN(CCOc3cccc4c3OCCO4)C2)c(C)s1 (stereo not shown) = 10%
Cn1ccc2cc(S(=O)(=O)NC3CCN(CCCc4noc5cc(F)ccc45)C3)ccc21 (stereo not shown) = 0%
CC(C)(C)c1ccc(S(=O)(=O)NCC2CN(CCOc3cccc4c3OCCO4)C2)cc1 = 0%
Cc1cccc(S(=O)(=O)NC2CCN(CCCc3c[nH]c4ccc(Cl)cc34)C2)c1 (stereo not shown) = 1%
O=S(=O)(NC1CN(CCOc2cccc3[nH]ccc23)C1)c1ccc2ccccc2c1 = 2%

Q) Give the measured inhibition at 1 µM of `Cc1c(S(=O)(=O)N[C@H]2CCN(CCCc3noc4cc(F)ccc34)C2)sc2ccc(F)cc12` .
A) 12%

Q) Also, `O=S(=O)(N[C@H]1CCN(CCCc2noc3cc(F)ccc23)C1)c1cc2ccccc2s1` please.
A) 26%

Q) Also, `O=S(=O)(N[C@@H]1CCN(CCCc2noc3cc(F)ccc23)C1)c1cc2ccc(Cl)cc2s1` please.
A) 37%

Q) Also, `Cc1cc(S(=O)(=O)N[C@@H]2CCN(CCCc3noc4cc(F)ccc34)C2)c(C)s1` please.
A) 18%

Q) Also, CC1(C)Cc2cccc(OCCN3CCC(NS(=O)(=O)c4ccc5ccccc5c4)C3)c2O1 (stereo not shown) please.
A) -4%
